The following compounds are listed with their measured POTASSIUM values.
Species on record: Rattus norvegicus
procedure_summary: DrugMatrix - Regimen: Daily Repeat
Assay type: toxicity, organism-based, Sprague-Dawley
Set-up: regimen Daily Repeat, gender Male, age 6-8 weeks
condition: in vivo, iv, 0 mg/kg, 120 h, tissue Plasma, dose level Control, time 5 day, vehicle 100 % SALINE
Number in MEQ/L, nothing else.

Some entries whose results are on file:
1. CCC1=C[C@@H]2CN(C1)Cc1c([nH]c3ccccc13)[C@@](C(=O)OC)(c1cc3c(cc1OC)N(C)[C@H]1[C@@](O)(C(=O)OC)[C@H](OC(C)=O)[C@]4(CC)C=CCN5CC[C@]31[C@@H]54)C2 [VINORELBINE] ... 6.54
2. CCc1c2c(nc3ccc(OC(=O)N4CCC(N5CCCCC5)CC4)cc13)-c1cc3c(c(=O)n1C2)COC(=O)[C@]3(O)CC [IRINOTECAN] ... 6.66
3. CC[C@]1(O)C[C@@H]2CN(CCc3c([nH]c4ccccc34)[C@@](C(=O)OC)(c3cc4c(cc3OC)N(C)[C@H]3[C@@](O)(C(=O)OC)[C@H](OC(C)=O)[C@]5(CC)C=CCN6CC[C@]43[C@@H]65)C2)C1 [VINBLASTINE] ... 5.51

Moving on to the next compound.
Query string: Which value of POTASSIUM has been reported for CC(=O)N[C@@H]1[C@H](Oc2c3cc4cc2Oc2ccc(cc2Cl)[C@@H](O[C@@H]2O[C@@H](CO)[C@@H](O)[C@H](O)[C@@H]2NC(C)=O)[C@@H]2NC(=O)[C@H](NC(=O)[C@@H]4NC(=O)[C@H]4NC(=O)[C@@H](Cc5ccc(c(Cl)c5)O3)NC(=O)[C@H](N)c3ccc(O)c(c3)Oc3cc(O)cc4c3)c3ccc(O)c(c3)-c3c(O[C@H]4O[C@H](CO)[C@@H](O)[C@@H](O)[C@@H]4O)cc(O)cc3[C@@H](C(=O)O)NC2=O)O[C@@H](CO)[C@@H](O)[C@@H]1O in the records?
Result string: 6.06
